inhibition at 1 µM reference
- tested on: serotonin transporter (SERT) (Homo sapiens, UniProt P31645)
- Construct: expressed in transfected cells; host or cells: CHO cells
- Sequence (P31645 whole entry): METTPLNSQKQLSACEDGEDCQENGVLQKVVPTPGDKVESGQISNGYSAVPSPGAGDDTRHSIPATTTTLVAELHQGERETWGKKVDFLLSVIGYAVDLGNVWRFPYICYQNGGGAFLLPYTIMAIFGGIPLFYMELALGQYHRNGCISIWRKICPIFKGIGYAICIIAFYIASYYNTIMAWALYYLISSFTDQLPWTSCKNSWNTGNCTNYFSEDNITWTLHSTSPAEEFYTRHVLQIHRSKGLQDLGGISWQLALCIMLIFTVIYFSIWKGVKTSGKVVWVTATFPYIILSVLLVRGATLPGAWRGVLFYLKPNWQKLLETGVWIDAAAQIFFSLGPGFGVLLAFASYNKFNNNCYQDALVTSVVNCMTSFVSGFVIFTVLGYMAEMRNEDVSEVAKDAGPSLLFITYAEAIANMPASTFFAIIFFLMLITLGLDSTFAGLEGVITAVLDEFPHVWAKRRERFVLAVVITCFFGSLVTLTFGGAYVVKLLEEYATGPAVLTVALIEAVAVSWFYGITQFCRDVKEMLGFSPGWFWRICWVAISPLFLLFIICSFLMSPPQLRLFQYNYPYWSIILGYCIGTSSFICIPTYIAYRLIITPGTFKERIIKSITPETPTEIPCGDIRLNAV
- protocol details: Radioligand binding assay, serotonin transporter (SERT)
- cond: binding assay, test compound 1×10^−6 M
- Excerpt: The specific ligand binding to the receptors is defined as the difference between the total binding and the non-specific binding determined in the presence of the excess of unlabelled ligand. The results are expressed as a percent of control specific binding ((measured specific binding/control specific binding)×100) and as a percent inhibition of control specific binding (100−((measured specific binding/control specific binding)×100)) obtained in the presence of the test compounds. […]
Write it as a number; the unit % goes unstated.

Solved entries:
molecule	reading unit	inhibition at 1 µM
O=S(=O)(NC1CCN(CCCc2noc3cc(F)ccc23)C1)c1cc2ccccc2o1 (stereo not shown) [Compound 216]	%	53
O=S(=O)(NCC1CN(CCOc2cccc3c2OCCO3)C1)c1ccc(I)cc1 [Compound 193]	%	41
Cc1c(S(=O)(=O)NCC2CCN(CCOc3cccc4ccccc34)C2)sc2ccc(Cl)cc12 (stereo not shown) [Compound 272]	%	20

query: Specify reported inhibition at 1 µM for the molecule shown: O=S(=O)(NCC1CCN(CCOc2cccc3c2OCCO3)C1)c1ccc(Cl)c(Cl)c1 (stereo not shown) [Compound 301]
result: 38

====

- tested on: 5-HT6 receptor (Homo sapiens)
- Construct: purchased PerkinElmer
- Sequence (P50406 whole entry): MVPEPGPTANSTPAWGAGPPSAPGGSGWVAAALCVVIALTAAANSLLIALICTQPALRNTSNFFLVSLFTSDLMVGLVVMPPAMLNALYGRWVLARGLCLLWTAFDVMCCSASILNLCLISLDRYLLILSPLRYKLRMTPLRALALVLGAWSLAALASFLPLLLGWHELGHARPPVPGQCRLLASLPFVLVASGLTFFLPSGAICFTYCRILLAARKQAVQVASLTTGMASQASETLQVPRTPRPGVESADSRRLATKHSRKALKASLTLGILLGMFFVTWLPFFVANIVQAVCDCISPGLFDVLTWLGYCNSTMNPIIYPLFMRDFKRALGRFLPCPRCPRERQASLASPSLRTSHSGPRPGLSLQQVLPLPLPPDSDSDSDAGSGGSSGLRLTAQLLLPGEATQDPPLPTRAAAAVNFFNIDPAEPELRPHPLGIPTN
- protocol details: Radioligand binding assay, serotoninergic 5-HT6 receptors;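 also: test compound at 1 µM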
- cond: binding assay result in %, Table 5a
- Text: The specific ligand binding to the receptors is defined as the difference between the total binding and the non-specific binding determined in the presence of the excess of unlabelled ligand. The results are expressed as a percent of control specific binding ((measured specific binding/control specific binding)×100) and as a percent inhibition of control specific binding (100−((measured specific binding/control specific binding)×100)) obtained in the presence of the test compounds. […]
inhibition at 1 µM reference
Write it as a number; the unit % goes unstated.

Solved entries:
compound	inhibition at 1 µM [%]
O=S(=O)(NC1CCN(CCCc2noc3cc(F)ccc23)C1)c1ccc2cc(Cl)ccc2c1 (centres unmarked) [Compound 23]	97
O=S(=O)(N[C@H]1CCN(CCCc2noc3cc(F)ccc23)C1)c1ccc2cc(Cl)ccc2c1 [Compound 201]	94
COc1ccc2cc(S(=O)(=O)N[C@@H]3CCN(CCCc4noc5cc(F)ccc45)C3)ccc2c1 [Compound 230]	96
O=S(=O)(N[C@@H]1CCN(CCCc2noc3cc(F)ccc23)C1)c1ccc2ccccc2c1 [Compound 206]	101
O=S(=O)(NC1CCN(CCCc2noc3cc(F)ccc23)C1)c1cnc2ccccn12 (centres unmarked) [Compound 30]	77

query: Specify reported inhibition at 1 µM for the compound shown: COc1cccc(S(=O)(=O)NCC2CN(CCCc3noc4cc(F)ccc34)C2)c1 [Compound 143]
result: 78

query: Specify reported inhibition at 1 µM for the compound shown: O=S(=O)(NCC1CN(CCOc2cccc3c2OCCO3)C1)c1ccc2cc(Cl)ccc2c1 [Compound 174]
result: 64

query: Specify reported inhibition at 1 µM for the compound shown: O=S(=O)(NCC1CCN(CCCc2noc3cc(F)ccc23)C1)c1cc2ccccc2o1 (centres unmarked) [Compound 257]
result: 94

====

Here's a batch of molecules along with measured Ki for 5-HT2A receptor (Homo sapiens, UniProt P28223).
Write it as a number; the unit nM goes unstated.

Solved entries:
molecule	recorded result
O=S(=O)(N[C@@H]1CCN(CCCc2noc3cc(F)ccc23)C1)c1cc2ccccc2o1 [Compound 214]	2.1
O=S(=O)(N[C@@H]1CCN(CCCc2noc3cc(F)ccc23)C1)c1ccc2ccccc2c1 [Compound 206]	0.7
Cc1ccc2sc(S(=O)(=O)N[C@H]3CCN(CCCc4noc5cc(F)ccc45)C3)cc2c1 [Compound 229]	0.6
O=S(=O)(N[C@H]1CCN(CCCc2noc3cc(F)ccc23)C1)c1cc2ccc(Cl)cc2s1 [Compound 199]	0.7
COc1ccc2cc(S(=O)(=O)N[C@@H]3CCN(CCCc4noc5cc(F)ccc45)C3)ccc2c1 [Compound 230]	0.4
O=S(=O)(NCC1CN(CCCc2noc3cc(F)ccc23)C1)c1cc2ccccc2s1 [Compound 127]	4.2
COc1ccc2cc(S(=O)(=O)N[C@H]3CCN(CCCc4noc5cc(F)ccc45)C3)ccc2c1 [Compound 231]	1.9

# context switch: different molecule, same Ki
query: Provide measured Ki on 5-HT2A receptor (Homo sapiens, UniProt P28223) for Cc1c(S(=O)(=O)NCC2CCN(CCCc3noc4cc(F)ccc34)C2)sc2ccc(Cl)cc12 (centres unmarked) [Compound 238] please.
Sequence (P28223 whole entry): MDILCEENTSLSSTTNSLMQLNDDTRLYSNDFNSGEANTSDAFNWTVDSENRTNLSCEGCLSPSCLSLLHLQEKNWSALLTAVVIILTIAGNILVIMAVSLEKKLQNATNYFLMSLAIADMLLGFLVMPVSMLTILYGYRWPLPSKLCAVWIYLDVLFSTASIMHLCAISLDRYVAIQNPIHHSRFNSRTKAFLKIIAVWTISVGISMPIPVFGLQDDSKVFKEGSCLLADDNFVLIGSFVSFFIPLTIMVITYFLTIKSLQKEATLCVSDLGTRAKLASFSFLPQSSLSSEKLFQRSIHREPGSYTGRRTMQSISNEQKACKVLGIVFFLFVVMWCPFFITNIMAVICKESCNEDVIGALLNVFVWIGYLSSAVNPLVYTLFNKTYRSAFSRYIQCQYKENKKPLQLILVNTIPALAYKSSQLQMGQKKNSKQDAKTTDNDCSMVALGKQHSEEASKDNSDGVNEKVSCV
result: 3
